Every entry's value here was drawn from ChEMBL document CHEMBL5308541.

system: Plasmodium falciparum; test: Confirmatory screen in NF54 nanoGlo assay, in single point, at 2uM, 72h; type: functional, Erythrocyte; settings: timepoint 72 hour
Screen size: about 4,800 compounds; about 420 (8.8%) showed an effect of 50% or more. The sample as a whole holds a higher share of strong results than the screen did.
Rule: % Inhibition of 40% or more gives MET; anything lower gives NOT MET.

INSERT INTO assay_data (compound, tested_target, label) VALUES
  ('Cc1ccc(-c2cccc3c(C(=O)NCCCN4CCC(N5CCCCC5)CC4)cc(C)nc23)cc1', 'Plasmodium falciparum', 'MET'),
  ('COc1cc2nc(-c3ccc(F)c4cccnc34)nc(N)c2cc1OC', 'Plasmodium falciparum', 'MET'),
  ('CCCc1cccc(CNC2CCN(C3CCN(C)CC3)CC2)c1', 'Plasmodium falciparum', 'MET'),
  ('Fc1ccc(-n2cc(CNCCC3CCN(c4ccncc4)CC3)cn2)cc1', 'Plasmodium falciparum', 'MET'),
  ('CC(C)CCOc1ccc2[nH]c(-c3cc(N4CCC[C@@H]4CS(C)(=O)=O)ccn3)cc2c1', 'Plasmodium falciparum', 'MET'),
  ('OC1CN(Cc2cnc(C3CCCCC3)nc2)CCC1Nc1ncccn1 (stereo not drawn)', 'Plasmodium falciparum', 'NOT MET'),
  ('COc1ccc2cc(NC(=O)c3cc(-c4c(C)nn(C)c4C)[nH]n3)cnc2c1', 'Plasmodium falciparum', 'MET'),
  ('Cc1sc2nc(-c3ccccn3)nc(NCCc3nccn3C)c2c1-c1ccccc1', 'Plasmodium falciparum', 'MET'),
  ('Cc1cc(NCCCN2CCC[C@H](O)C2)c2cc(F)ccc2n1', 'Plasmodium falciparum', 'NOT MET'),
  ('CC(CNc1nc(NCC(C)N2CCOCC2)c2cc(Cl)ccc2n1)N1CCOCC1 (stereo not drawn)', 'Plasmodium falciparum', 'MET'),
  ('CN1CCN(CCNC2CCN3CCCC3C2)C(c2ccccc2)C1 (stereo not drawn)', 'Plasmodium falciparum', 'NOT MET'),
  ('Brc1cccc(NCCNC2CCN(Cc3cccnc3)CC2)c1', 'Plasmodium falciparum', 'NOT MET'),
  ('Cn1cc(-c2cncc(C(=O)NC3CCN(c4cccc(F)c4)CC3)c2)cn1', 'Plasmodium falciparum', 'MET'),
  ('CN(CCCn1ccnc1)c1ccnc2cc(Br)ccc12', 'Plasmodium falciparum', 'MET'),
  ('OC[C@H](CNCc1cc2ccc(F)cc2[nH]1)c1ccccc1Cl', 'Plasmodium falciparum', 'MET'),
  ('COc1ccc2nc3cc(Cl)ccc3c(O)c2c1', 'Plasmodium falciparum', 'MET'),
  ('c1cc(CN2CCN(c3cc(N4CCN(Cc5ccncc5)CC4)ncn3)CC2)ccn1', 'Plasmodium falciparum', 'NOT MET'),
  ('COc1ccc2[nH]cc(-c3ccc(N)nc3)c2c1', 'Plasmodium falciparum', 'NOT MET'),
  ('COC(=O)c1cn(CCNc2ccnc3cc(Cl)ccc23)cc2c(O)nnc1-2', 'Plasmodium falciparum', 'MET'),
  ('CN(C)CCN1CCC(CNCc2ccc3ncccc3c2)CC1', 'Plasmodium falciparum', 'NOT MET'),
  ('CCN1CCN(c2ccccc2CNCCC2CCN(C)CC2)CC1', 'Plasmodium falciparum', 'NOT MET'),
  ('C[C@@H](CNC1CCN(C2CCN(C)CC2)CC1)c1cccc(Cl)c1', 'Plasmodium falciparum', 'MET');
